B1: POU domain, class 4, transcription factor 2, residues 256 to 327; numbered along this chain, Q12837 (parent)
chain: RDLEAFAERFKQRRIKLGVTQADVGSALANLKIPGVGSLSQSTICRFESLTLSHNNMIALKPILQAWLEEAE

variants of: B1; experiment: abundance fitness (aPCA) (normalised: wild type 0, dead -1); higher = more abundant; growth selection in yeast, the domain comes from the species named; settings: Homo sapiens
I'd be grateful if you could share measured abundance fitness for these entries.
Answers are plain numbers.

For every record below, what is its abundance fitness?
1. RDLEAFAERFKQRRIKLGVTQADVGSALANLKIPGVGSLSQSTICRFESLTLMHNNMIALKPILQAWLEEAE
2. RDLEAFAERFKQRRIKLGVTQADVGSALANLKIPGVGSLSQSTICRFESLTPSHNNMIALKPILQAWLEEAE
3. RDLEAFAERFKQRRIKLGVTQADVGSALANLKIPGVGSLSQSTICRFESLTLSHNNMIALKPELQAWLEEAE
4. RDLEAFAERFKQRRIKLGVTQADVGSALANLKIPGVGSLSQSTICTFESLTLSHNNMIALKPILQAWLEEAE
5. RDLEAFAERFKQRRIKLGVTQADVGSALANLKIPGVGSLSQSTICRFESLTASHNNMIALKPILQAWLEEAE

1: -0.371; 2: -0.887; 3: -0.018; 4: -0.531; 5: -0.822

For every record below, what is its abundance fitness?
1. RDLEAFAERFKQRRIKLGVTHADVGSALANLKIPGVGSLSQSTICRFESLTLSHNNMIALKPILQAWLEEAE
2. RDLEAFAERFKQRRIKLGVTQADVGSALANLKIPGVGTLSQSTICRFESLTLSHNNMIALKPILQAWLEEAE
3. RDLEAFAERFKQRRIKLGVTQADVGSALANLKIPGVGSLSQSTICRFESLKLSHNNMIALKPILQAWLEEAE

1: 0.184; 2: -0.083; 3: 0.264

For every record below, what is its abundance fitness?
1. RDLEAFAERFKQRRIKLGVTQADVGSALANLKIPGVSSLSQSTICRFESLTLSHNNMIALKPILQAWLEEAE
2. RDLEAFAERFKQRRIKLGVTQADVGSALANLKIPGVGSLSQSTICRFEMLTLSHNNMIALKPILQAWLEEAE
3. RDLEAFAERFKQRMIKLGVTQADVGSALANLKIPGVGSLSQSTICRFESLTLSHNNMIALKPILQAWLEEAE
4. RDLEAFAERFKQRRIKLGVTQADVGSALANLKIPGVGSLSQSTICRDESLTLSHNNMIALKPILQAWLEEAE
5. RDLEAFAERFKQRRIKLGVTQADVGSALYNLKIPGVGSLSQSTICRFESLTLSHNNMIALKPILQAWLEEAE
6. RDLEAFAERFKQRRIKLGVTQADVGSALANLKIPGVGSLSQSTICRFESLTLSHNNMIALKPILQAWLEEAY
7. RDLEAFAERFKQRRIKLGVTQADVGSALANLKIPGVGSLSQSTICRFESLTLSHNNMIALKPILQAWLIEAE

0.028
-0.492
-0.725
-0.82
-0.165
-0.206
-0.248

For every record below, what is its abundance fitness?
1. RDLEAFAERFKQRRIKLGVTQADVGSALANLKIPGVGSLSQSTICRFESLTLSHNNMIASKPILQAWLEEAE
2. RDLEAFAERFKQRRIKLGVTQADVGSALANLKIPGVGKLSQSTICRFESLTLSHNNMIALKPILQAWLEEAE
3. RDLEAFAERFKQRRIKLGVTQADVGSALANLKIPGVGSLSQSTICRFESLTLSDNNMIALKPILQAWLEEAE
4. RDLEAFAERFKQRRKKLGVTQADVGSALANLKIPGVGSLSQSTICRFESLTLSHNNMIALKPILQAWLEEAE
5. RDLEAFAERFKQRRIKLGVTQADVGSALANLKIPGVGSLSQSTICRFESLTLSHNNMDALKPILQAWLEEAE

1: -0.77; 2: -0.127; 3: -0.183; 4: 0.015; 5: -0.615

For every record below, what is its abundance fitness?
1. RDLEAFAERFKQRRIKLGVTQADVGSALANLKIPGVGSQSQSTICRFESLTLSHNNMIALKPILQAWLEEAE
2. RDLEAFAERFKQRRIKLGVTQADVGSALANLKIPGVGSLSQSTLCRFESLTLSHNNMIALKPILQAWLEEAE

[-0.732, -0.392]

// data source = the Human Domainome abundance scans (Beltran et al. 2025)
